Origin of the recorded values: the supplement of paper PMC11246515

method-notes: total protein half-life in vivo (active degradation + dilution); higher = more stable protein
experimental-context: wild type E. coli NCM3722; growth: N-lim chemostat; doubling time 6 h
Would you mind telling me the reported total protein half-life in vivo of each entry?
Note: unit h is implicit; provide only the numeric part.

Identify the reported total protein half-life in vivo for the following entry. MKYDLIIIGSGSVGAAAGYYATRAGLNVLMTDAHMPPHQHGSHHGDTRLIRHAYGEGEKYVPLVLRAQTLWDELSRHNEEDPIFVRSGVINLGPADSTFLANVAHSAEQWQLNVEKLDAQGIMARWPEIRVPDNYIGLFETDSGFLRSELAIKTWIQLAKEAGCAQLFNCPVTAIRHDDDGVTIETADGEYQAKKAIVCAGTWVKDLLPELPVQPVRKVFAWYQADGRYSVKNKFPAFTGELPNGDQYYGFPAENDALKIGKHNGGQVIHSADERVPFAEVASDGSEAFPFLRNVLPGIGCCLYGAACTYDNSPDEDFIIDTLPGHDNTLLITGLSGHGFKFASVLGEIAADFAQDKKSDFDLTPFRLSRFQ 3.11

Identify the reported total protein half-life in vivo for the following entry. MMDNMQTEAQPTRTRILNAAREIFSENGFHSASMKAICKSCAISPGTLYHHFISKEALIQAIILQDQERALARFREPIEGIHFVDYMVESIVSLTHEAFGQRALVVEIMAEGMRNPQVAAMLKNKHMTITEFVAQRMRDAQQKGEISPDINTAMTSRLLLDLTYGVLADIEAEDLAREASFAQGLRAMIGGILTAS [P0ACT6] 4.87

Identify the reported total protein half-life in vivo for the following entry. MNTVCTHCQAINRIPDDRIEDAAKCGRCGHDLFDGEVINATGETLDKLLKDDLPVVIDFWAPWCGPCRNFAPIFEDVAQERSGKVRFVKVNTEAERELSSRFGIRSIPTIMIFKNGQVVDMLNGAVPKAPFDSWLNESL [P0AGG4] 2.26

====

Would you mind telling me the reported total protein half-life in vivo of each entry?
method-notes: total protein half-life in vivo (active degradation + dilution); higher = more stable protein
experimental-context: wild type E. coli NCM3722; growth: C-lim chemostat; doubling time 3 h
Note: unit h is implicit; provide only the numeric part.

Identify the reported total protein half-life in vivo for the following entry. MLNIVLYEPEIPPNTGNIIRLCANTGFRLHIIEPMGFAWDDKRLRRAGLDYHEFTAVTRHHDYRAFLEAENPQRLFALTTKGTPAHSAVSYQDGDYLMFGPETRGLPASILDALPAEQKIRIPMVPDSRSMNLSNAVSVVVYEAWRQLGYPGAVLRD [P0AGJ7] 2.91

Identify the reported total protein half-life in vivo for the following entry. MNMMRIFYIGLSGVGMMFSSMASGNDAGGLQSPACGVVCDPYICVNSDGISPELTRKYLGEKAAENLQSLQGYDPSEFTFANGVFCDVKEKLCRDDRYFGVDGKRSGKINQTTTKMLFMCRE 2.85

Identify the reported total protein half-life in vivo for the following entry. MESGHRFDAQTLHSFIQAVFRQMGSEEQEAKLVADHLIAANLAGHDSHGIGMIPSYVRSWSQGHLQINHHAKTVKEAGAAVTLDGDRAFGQVAAHEAMALGIEKAHQHGIAAVALHNSHHIGRIGYWAEQCAAAGFVSIHFVSVVGIPMVAPFHGRDSRFGTNPFCVVFPRKDNFPLLLDYATSAIAFGKTRVAWHKGVPVPPGCLIDVNGVPTTNPAVMQESPLGSLLTFAEHKGYALAAMCEILGGALSGGKTTHQETLQTSPDAILNCMTTIIINPELFGAPDCNAQTEAFAEWVKASPHDDDKPILLPGEWEVNTRRERQKQGIPLDAGSWQAICDAARQIGMPEETLQAFCQQLAS 3.14

Identify the reported total protein half-life in vivo for the following entry. MKTALLLEKLEGQLATLRQRCAPVSQFATLSARFDRHLFQTRATTLQACLDEAGDNLAALRHAVEQQQLPQVAWLAEHLAAQLEAIAREASAWSLREWDSAPPKIARWQRKRIQHQDFERRLREMVAERRARLARVTDLVEQQTLHREVEAYEARLARCRHALEKIENRLARLTR 1.95

Identify the reported total protein half-life in vivo for the following entry. MPPRALLLVDLQNDFCAGGALAVPEGDSTVDVANRLIDWCQSRGEAVIASQDWHPANHGSFASQHGVEPYTPGQLDGLPQTFWPDHCVQNSEGAQLHPLLHQKAIAAVFHKGENPLVDSYSAFFDNGRRQKTSLDDWLRDHEIDELIVMGLATDYCVKFTVLDALQLGYKVNVITDGCRGVNIQPQDSAHAFMEMSAAGATLYTLADWEETQG 3.05

Identify the reported total protein half-life in vivo for the following entry. MKVMRTTVATVVAATLSMSAFSVFAEASLTGAGATFPAPVYAKWADTYQKETGNKVNYQGIGSSGGVKQIIANTVDFGASDAPLSDEKLAQEGLFQFPTVIGGVVLAVNIPGLKSGELVLDGKTLGDIYLGKIKKWDDEAIAKLNPGLKLPSQNIAVVRRADGSGTSFVFTSYLAKVNEEWKNNVGTGSTVKWPIGLGGKGNDGIAAFVQRLPGAIGYVEYAYAKQNNLAYTKLISADGKPVSPTEENFANAAKGADWSKTFAQDLTNQKGEDAWPITSTTFILIHKDQKKPEQGTEVLKFFDWAYKTGAKQANDLDYASLPDSVVEQVRAAWKTNIKDSSGKPLY [P0AG82] 3.42

====

Would you mind telling me the reported total protein half-life in vivo of each entry?
method-notes: total protein half-life in vivo (active degradation + dilution); higher = more stable protein
experimental-context: E. coli NCM3722 delta-lon; growth: N-lim chemostat; doubling time 6 h
Note: unit h is implicit; provide only the numeric part.

Identify the reported total protein half-life in vivo for the following entry. MTEPLKPRIDFDGPLEVDQNPKFRAQQTFDENQAQNFAPATLDEAQEEEGQVEAVMDAALRPKRSLWRKMVMGGLALFGASVVGQGVQWTMNAWQTQDWVALGGCAAGALIIGAGVGSVVTEWRRLWRLRQRAHERDEARDLLHSHGTGKGRAFCEKLAQQAGIDQSHPALQRWYASIHETQNDREVVSLYAHLVQPVLDAQARREISRSAAESTLMIAVSPLALVDMAFIAWRNLRLINRIATLYGIELGYYSRLRLFKLVLLNIAFAGASELVREVGMDWMSQDLAARLSTRAAQGIGAGLLTARLGIKAMELCRPLPWIDDDKPRLGDFRRQLIGQVKETLQKGKTPSEK [P0A8R7] 4.85

Identify the reported total protein half-life in vivo for the following entry. MNISDVAKITGLTSKAIRFYEEKGLVTPPMRSENGYRTYTQQHLNELTLLRQARQVGFNLEESGELVNLFNDPQRHSADVKRRTLEKVAEIERHIEELQSMRDQLLALANACPGDDSADCPIIENLSGCCHHRAG [P0A9G4] 2.12

Identify the reported total protein half-life in vivo for the following entry. MRTQWPSPAKLNLFLYITGQRADGYHTLQTLFQFLDYGDTISIELRDDGDIRLLTPVEGVEHEDNLIVRAARLLMKTAADSGRLPTGSGANISIDKRLPMGGGLGGGSSNAATVLVALNHLWQCGLSMDELAEMGLTLGADVPVFVRGHAAFAEGVGEILTPVDPPEKWYLVAHPGVSIPTPVIFKDPELPRNTPKRSIETLLKCEFSNDCEVIARKRFREVDAVLSWLLEYAPSRLTGTGACVFAEFDTESEARQVLEQAPEWLNGFVAKGANLSPLHRAML 4.25

====

method-notes: total protein half-life in vivo (active degradation + dilution); higher = more stable protein
experimental-context: E. coli NCM3722 delta-clpP; growth: N-lim chemostat; doubling time 6 h
So basically: total protein half-life in vivo at 5 h or higher? That is Yes. Lower than 5 h? That is No.

Hi team, for MNLHEYQAKQLFARYGLPAPVGYACTTPREAEEAASKIGAGPWVVKCQVHAGGRGKAGGVKVVNSKEDIRAFAENWLGKRLVTYQTDANGQPVNQILVEAATDIAKELYLGAVVDRSSRRVVFMASTEGGVEIEKVAEETPHLIHKVALDPLTGPMPYQGRELAFKLGLEGKLVQQFTKIFMGLATIFLERDLALIEINPLVITKQGDLICLDGKLGADGNALFRQPDLREMRDQSQEDPREAQAAQWELNYVALDGNIGCMVNGAGLAMGTMDIVKLHGGEPANFLDVGGGATKERVTEAFKIILSDDKVKAVLVNIFGGIVRCDLIADGIIGAVAEVGVNVPVVVRLEGNNAELGAKKLADSGLNIIAAKGLTDAAQQVVAAVEGK [P0A836] , is the recorded total protein half-life in vivo at or above 5 h? No

Hi team, for MTETIKVSESLELHAVAENHVKPLYQLICKNKTWLQQSLNWPQFVQSEEDTRKTVQGNVMLHQRGYAKMFMIFKEDELIGVISFNRIEPLNKTAEIGYWLDESHQGQGIISQALQALIHHYAQSGELRRFVIKCRVDNPQSNQVALRNGFILEGCLKQAEFLNDAYDDVNLYARIIDSQ , is the recorded total protein half-life in vivo at or above 5 h? No

Hi team, for MSCEELEIVWNNIKAEARTLADCEPMLASFYHATLLKHENLGSALSYMLANKLSSPIMPAIAIREVVEEAYAADPEMIASAACDIQAVRTRDPAVDKYSTPLLYLKGFHALQAYRIGHWLWNQGRRALAIFLQNQVSVTFQVDIHPAAKIGRGIMLDHATGIVVGETAVIENDVSILQSVTLGGTGKSGGDRHPKIREGVMIGAGAKILGNIEVGRGAKIGAGSVVLQPVPPHTTAAGVPARIVGKPDSDKPSMDMDQHFNGINHTFEYGDGI [P0A9D4] , is the recorded total protein half-life in vivo at or above 5 h? No

Hi team, for MKKILLMLSLLFFTTAGFSEVSDTLVTGGYDKQAMSDAIKHARKETDKFIEVMNKKDADTFAVKAPITDHGRTEHFWLTDVTYSNGMFIGVISNDPGIVTNVEYGQEWKIKKEDISDWMYTRGDKIYGGYTIDPLLVTYPKEEADELRAKLVR , is the recorded total protein half-life in vivo at or above 5 h? No

Hi team, for MQEYTNHSDTTFALRNISFRVPGRTLLHPLSLTFPAGKVTGLIGHNGSGKSTLLKMLGRHQPPSEGEILLDAQPLESWSSKAFARKVAYLPQQLPPAEGMTVRELVAIGRYPWHGALGRFGAADREKVEEAISLVGLKPLAHRLVDSLSGGERQRAWIAMLVAQDSRCLLLDEPTSALDIAHQVDVLSLVHRLSQERGLTVIAVLHDINMAARYCDYLVALRGGEMIAQGTPAEIMRGETLEMIYGIPMGILPHPAGAAPVSFVY , is the recorded total protein half-life in vivo at or above 5 h? Yes

Hi team, for MKKMLLATALALLITGCAQQTFTVQNKQTAVAPKETITHHFFVSGIGQKKTVDAAKICGGAENVVKTETQQTFVNGLLGFITLGIYTPLEARVYCSK , is the recorded total protein half-life in vivo at or above 5 h? Yes
